measured_property: pIC50
Kindly note that pIC50 refers to -log10 of the concentration in mol/L and answer with the value alone.

CCOC(=O)c1c(N)sc2c1CCC1=C2C(c2ccccc2Cl)C(C#N)=C(N)O1 (stereo not shown) [Compound 6e] on human RNA N7-MTase (hRNMT) (Homo sapiens, UniProt O43148) gives pIC50 = 6.54

N#CC1=C(N)OC2=C(CC(=O)CC2)C1c1ccccc1Cl (stereo not shown) [Compound 4b] on human RNA N7-MTase (hRNMT) (Homo sapiens, UniProt O43148) gives pIC50 = 6.39

CCOC(=O)c1c(N)sc2c1CCc1c-2sc(=S)n1-c1ccccc1 [Compound 21b] on human RNA N7-MTase (hRNMT) (Homo sapiens, UniProt O43148) gives pIC50 = 6.03

CC1=CSC(=C2C(=O)CCC3=C2C(c2ccccc2Cl)C(C#N)=C(N)O3)N1c1ccccc1 (stereo not shown) [Compound 15] on human RNA N7-MTase (hRNMT) (Homo sapiens, UniProt O43148) gives pIC50 = 5.31

----------
measured_property: log10 IC50 (log10 of the value in µM)
Values below are the log10 of the recorded IC50, with µM as the unit.

CCOC(=O)C1=C(N)OC2=C(c3sc(=S)n(-c4ccccc4)c3CC2)C1c1ccccc1 (stereo not shown) [Compound 23c] on human RNA N7-MTase (hRNMT) (Homo sapiens) gives log10 IC50 = 1.85

N#CC1=C(N)OC2=C(C=C(c3c(N)nn(-c4ccccc4)c3N)CC2)C1c1ccccc1Cl (stereo not shown) [Compound 9b] on human RNA N7-MTase (hRNMT) (Homo sapiens) gives log10 IC50 = 0.28

CCOC(=O)c1c(N)sc2c1CCC1=C2C(c2ccccc2)C(C#N)=C(N)O1 (stereo not shown) [Compound 6d] on human RNA N7-MTase (hRNMT) (Homo sapiens) gives log10 IC50 = 1.02

N#Cc1c(N)sc2c1CCc1c-2sc(=S)n1-c1ccccc1 [Compound 21a] on human RNA N7-MTase (hRNMT) (Homo sapiens) gives log10 IC50 = 1.75

N#CC1=C(N)OC2=C(c3sc(N)c(C#N)c3CC2)C1c1ccccc1 (stereo not shown) [Compound 6a] on human RNA N7-MTase (hRNMT) (Homo sapiens) gives log10 IC50 = 1.56

N#CC1=C(N)OC2=C(c3sc(=S)n(-c4ccccc4)c3CC2)C1c1ccccc1 (stereo not shown) [Compound 23a] on human RNA N7-MTase (hRNMT) (Homo sapiens) gives log10 IC50 = 1.39

O=C1CCc2c(sc(=S)n2-c2ccccc2)C1 [Compound 18] on human RNA N7-MTase (hRNMT) (Homo sapiens) gives log10 IC50 = 1.42

----------
# system_under_test: vaccinia virus capping enzyme (D1-D12) (Vaccinia virus)
# assay_notes: biochemical
# run_conditions: read-out: % of inhibition at 50 μM, Vaccinia virus D1-D12
Quick rule: inhibition at 50 µM of at least 90% means Condition met, below that means Condition not met.

INPUT: Quick check, inhibition at 50 µM >= 90%? CCOC(=O)c1c(N)sc2c1CCC1=C2C(c2ccccc2)C(C#N)=C(N)O1 (stereo not drawn) [Compound 6d]
OUTPUT: Condition not met

INPUT: Quick check, inhibition at 50 µM >= 90%? N#CC1=C(N)OC2=C(C=C(c3c(N)n[nH]c3N)CC2)C1c1ccccc1Cl (stereo not drawn) [Compound 9a]
OUTPUT: Condition met

INPUT: Quick check, inhibition at 50 µM >= 90%? N#Cc1c(N)sc2c1CCc1c-2sc(=S)n1-c1ccccc1 [Compound 21a]
OUTPUT: Condition not met

INPUT: Quick check, inhibition at 50 µM >= 90%? COc1ccc(C2C(C#N)=C(N)OC3=C2CC(=O)CC3)cc1 (stereo not drawn) [Compound 4c]
OUTPUT: Condition not met

INPUT: Quick check, inhibition at 50 µM >= 90%? CCOC(=O)c1c(N)sc2c1CCC1=C2C(c2ccc(OC)cc2)C(C#N)=C(N)O1 (stereo not drawn) [Compound 6f]
OUTPUT: Condition not met

----------
# system_under_test: SARS-CoV nsp14 (Severe acute respiratory syndrome coronavirus, UniProt P0C6X7)
# assay_notes: biochemical
# run_conditions: read-out: % of inhibition at 50 μM, SARs-Cov nsp 14
Quick rule: inhibition at 50 µM of at least 60% means Criterion met, below that means Criterion not met.

INPUT: Quick check, inhibition at 50 µM >= 60%? CCOC(=O)c1c(N)sc2c1CCC1=C2C(c2ccccc2Cl)C(C#N)=C(N)O1 (centres unmarked)
OUTPUT: Criterion met

INPUT: Quick check, inhibition at 50 µM >= 60%? CCOC(=O)c1c(N)sc2c1CCC1=C2C(c2ccccc2)C(C#N)=C(N)O1 (centres unmarked)
OUTPUT: Criterion not met

INPUT: Quick check, inhibition at 50 µM >= 60%? N#CC1=C(N)OC2=C(CC(=O)CC2)C1c1ccccc1 (centres unmarked)
OUTPUT: Criterion met

INPUT: Quick check, inhibition at 50 µM >= 60%? N#CC1=C(N)OC2=C(c3sc(=S)n(-c4ccccc4)c3CC2)C1c1ccccc1 (centres unmarked) [Compound 23a]
OUTPUT: Criterion not met

INPUT: Quick check, inhibition at 50 µM >= 60%? COc1ccc(C2C(C#N)=C(N)OC3=C2CC(=O)CC3)cc1 (centres unmarked)
OUTPUT: Criterion not met

INPUT: Quick check, inhibition at 50 µM >= 60%? CCOC(=O)C1=C(N)OC2=C(c3sc(=S)n(-c4ccccc4)c3CC2)C1c1ccccc1 (centres unmarked) [Compound 23c]
OUTPUT: Criterion met

INPUT: Quick check, inhibition at 50 µM >= 60%? N#CC1=C(N)OC2=C(c3sc(N)c(C#N)c3CC2)C1c1ccccc1 (centres unmarked)
OUTPUT: Criterion met

INPUT: Quick check, inhibition at 50 µM >= 60%? CCOC(=O)C1=C(N)OC2=C(c3sc(=S)n(-c4ccccc4)c3CC2)C1c1ccc(Cl)cc1 (centres unmarked) [Compound 23d]
OUTPUT: Criterion not met

----------
What log10 of IC50 was measured for each of the following?
Values below are the log10 of the recorded IC50, with nM as the unit.

COc1ccc(C2C(C#N)=C(N)OC3=C2CC(=O)CC3)cc1 (centres unmarked) [Compound 4c] on human RNA N7-MTase (hRNMT) (Homo sapiens, UniProt O43148) gives log10 of IC50 = 4.51

CCOC(=O)c1c(N)sc2c1CCC1=C2C(c2ccc(OC)cc2)C(C#N)=C(N)O1 (centres unmarked) [Compound 6f] on human RNA N7-MTase (hRNMT) (Homo sapiens, UniProt O43148) gives log10 of IC50 = 3.10

CCOC1C(C#N)=C(N)OC2=C1c1sc(=S)n(-c3ccccc3)c1CC2 (centres unmarked) [Compound 20a] on human RNA N7-MTase (hRNMT) (Homo sapiens, UniProt O43148) gives log10 of IC50 = 4.77

CCOC1C(C#N)=C(O)OC2=C1c1sc(=S)n(-c3ccccc3)c1CC2 (centres unmarked) [Compound 20b] on human RNA N7-MTase (hRNMT) (Homo sapiens, UniProt O43148) gives log10 of IC50 = 4.27

CCOC(=O)CSC(Nc1ccccc1)=C1C(=O)CCC2=C1C(c1ccccc1Cl)C(C#N)=C(N)O2 (centres unmarked) [Compound 16] on human RNA N7-MTase (hRNMT) (Homo sapiens, UniProt O43148) gives log10 of IC50 = 3.11

----------
Reported pIC50, SARS-CoV nsp14 (Severe acute respiratory syndrome coronavirus, UniProt P0C6X7).
Kindly note that pIC50 refers to -log10 of the concentration in mol/L and answer with the value alone.

pIC50 reported for this compound CCOC(=O)c1c(N)sc2c1CCC1=C2C(c2ccccc2Cl)C(C#N)=C(N)O1 (stereo not shown) : 6.41

pIC50 reported for this compound N#CC1=C(N)OC2=C(C=C(c3c(N)n[nH]c3N)CC2)C1c1ccccc1Cl (stereo not shown) : 6.38

pIC50 reported for this compound N#CC1=C(N)OC2=C(C=C(c3c(N)nn(-c4ccccc4)c3N)CC2)C1c1ccccc1Cl (stereo not shown) : 6.44

pIC50 reported for this compound N#CC1=C(N)OC2=C(CC(=O)CC2)C1c1ccccc1 (stereo not shown) : 6.20

----------
# system_under_test: human RNA N7-MTase (hRNMT) (Homo sapiens, UniProt O43148)
# Sequence (O43148 whole entry): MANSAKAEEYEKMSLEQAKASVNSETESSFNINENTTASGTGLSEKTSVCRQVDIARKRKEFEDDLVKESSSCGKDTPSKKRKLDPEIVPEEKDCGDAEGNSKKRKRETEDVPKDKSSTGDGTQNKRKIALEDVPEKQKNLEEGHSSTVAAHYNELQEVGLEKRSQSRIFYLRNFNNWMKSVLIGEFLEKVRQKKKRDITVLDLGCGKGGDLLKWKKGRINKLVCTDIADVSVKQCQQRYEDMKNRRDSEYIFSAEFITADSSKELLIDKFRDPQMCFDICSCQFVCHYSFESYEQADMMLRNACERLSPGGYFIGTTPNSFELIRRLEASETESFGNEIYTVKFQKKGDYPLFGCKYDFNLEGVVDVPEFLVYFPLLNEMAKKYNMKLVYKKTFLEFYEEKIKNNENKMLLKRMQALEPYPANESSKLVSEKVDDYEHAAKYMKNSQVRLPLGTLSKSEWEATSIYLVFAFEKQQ
# assay_notes: biochemical
# Type: biochemical
measured_property: % of inhibition at 50 μM, hRNMT

N#CC1=C(N)OC2=C(CC(=O)CC2)C1c1ccccc1Cl (stereo not drawn) = high inhibitions
N#CC1=C(N)OC2=C(CC(=O)CC2)C1c1ccccc1 (stereo not drawn) = high inhibitions
CC1=CSC(=C2C(=O)CCC3=C2C(c2ccccc2Cl)C(C#N)=C(N)O3)N1c1ccccc1 (stereo not drawn) = high inhibitions

----------
# system_under_test: vaccinia virus capping enzyme (D1-D12) (Vaccinia virus)
# assay_notes: biochemical
# run_conditions: read-out: % of inhibition at 50 μM, Vaccinia virus D1-D12
measured_property: inhibition at 50 µM (%)
Give a bare numeral; the unit % is implied.

inhibition at 50 µM reported for this compound N#CC1=C(N)OC2=C(c3sc(N)c(C#N)c3CC2)C1c1ccccc1 (stereo not shown) [Compound 6a] : 79.3

inhibition at 50 µM reported for this compound CCOC(=O)C1=C(N)OC2=C(c3sc(=S)n(-c4ccccc4)c3CC2)C1c1ccc(Cl)cc1 (stereo not shown) [Compound 23d] : 72.3

inhibition at 50 µM reported for this compound CCOC1C(C#N)=C(O)OC2=C1c1sc(=S)n(-c3ccccc3)c1CC2 (stereo not shown) [Compound 20b] : 41.4

inhibition at 50 µM reported for this compound CCOC(=O)c1c(N)sc2c1CCC1=C2C(c2ccccc2Cl)C(C#N)=C(N)O1 (stereo not shown) [Compound 6e] : 92.5

The origin of these recorded values is paper PMC8370666.
